STUDY_TARGET: UniProtKB P08173
Sequence (P08173 whole entry): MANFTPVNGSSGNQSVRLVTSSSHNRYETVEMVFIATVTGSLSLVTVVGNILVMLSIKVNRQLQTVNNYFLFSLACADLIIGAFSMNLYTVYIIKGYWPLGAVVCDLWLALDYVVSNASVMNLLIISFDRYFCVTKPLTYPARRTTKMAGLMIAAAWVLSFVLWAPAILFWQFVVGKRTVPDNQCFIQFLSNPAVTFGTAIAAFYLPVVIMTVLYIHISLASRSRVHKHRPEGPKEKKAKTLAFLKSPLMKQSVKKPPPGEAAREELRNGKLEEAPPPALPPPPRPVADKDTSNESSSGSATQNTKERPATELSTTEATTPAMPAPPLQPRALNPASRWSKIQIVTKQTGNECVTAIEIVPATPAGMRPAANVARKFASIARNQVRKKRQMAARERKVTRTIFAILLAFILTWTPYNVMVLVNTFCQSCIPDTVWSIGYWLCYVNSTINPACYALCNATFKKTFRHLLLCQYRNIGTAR
RUN_DESCRIPTION: mAChR M4 cell-based functional assay (calcium flux), human M4
ASSAY_CONDITIONS: Table 10; % ACh maximum at 30 μM
Where a name gives a salt, the structure may show the parent alone.
Classification by Emax | ranges: 1 (below 60%), 2 (60% to below 80%), 3 (80% or more)

Reference set (2 entries):
Cc1nnc2sc3c(NCc4ccc(F)c(C(=O)NC5CC(F)C5)c4)ncnc3c2c1C (centres unmarked) ... 3
Cc1nnc2sc3c(NCc4ccc(N5CCN(C)CC5)cc4)ncnc3c2c1C [Compound 111, hydrochloride] ... 2

# bin label for Cc1nnc2sc3c(NCc4ccc(C(=O)N5CC6(COC6)C5)cc4)ncnc3c2c1C
3

The entry to classify is COc1c(F)cc(CNc2ncnc3c2oc2nnc(C)c(C)c23)cc1F ; which class holds it?
1

Category lookup for the molecule Cc1nnc2sc3c(NCc4ccc(C(=O)N5CCC(F)(F)CC5)cc4)ncnc3c2c1C
3

Entry Cc1c(Cl)cnc2sc3c(N4CC5CC5C4)ncnc3c12 (centres unmarked) belongs to which category?
1

# credit: patent US10239887B2
